Just for reference, patent EP2061765B1 is where these values come from.

- Tested on: BxPC3
- test-description: Cell proliferation assay (Alamar Blue)
- Format: cell-based
- condition-summary: Homo sapiens, BXPC-3, 96 h, BxPC3 cells, four days
experimental-readout: IC50 (µM)

As a guide, the following entries are already answered.
{"molecule": "O=C(O)c1ccc2c(c1)nc(Nc1cccc(Cl)c1)c1nc(NC3CC3)ncc12 [drawing 477]", "IC50, µM": 1.95}
{"molecule": "O=C(O)c1ccc2c(c1)nc(Nc1cccc(Cl)c1)c1nc(O)ncc12 [drawing 493]", "IC50, µM": 15.8}
{"molecule": "CN(C)c1ncc2c(n1)c(Nc1cccc(Cl)c1)nc1cc(C(=O)O)ccc12 [drawing 481]", "IC50, µM": 42.7}
{"molecule": "CNC(=O)c1ccc2c(c1)nc(Nc1cccc(C(F)(F)F)c1)c1nc(NC3CC3)ncc12 [drawing 509]", "IC50, µM": 3}

[P] N#Cc1cccc(Nc2nc3cc(C(=O)O)ccc3c3cnccc23)c1 [drawing 460]
[Q] Nc1ncc2c(n1)c(Nc1cccc(Cl)c1)nc1cc(C(=O)O)ccc12 [drawing 482]
[R] O=C(O)c1ccc2c(c1)nc(Nc1ccccc1)c1nc(NC3CC3)ncc12 [drawing 461]
[S] O=C(O)CCNc1ncc2c(n1)c(Nc1cccc(Cl)c1)nc1cc(C(=O)O)ccc12 [drawing 498]
Order by IC50, ascending. Lab note: final answer is the ordered label list.
Q, R, P, S

====

- System: BxPC3
- test-description: Cell proliferation assay (Alamar Blue)
- Type: cell-based
- condition-summary: Homo sapiens, BXPC-3, 96 h, BxPC3 cells, four days
experimental-readout: IC50 (µM)

{"compound": "O=C(O)c1ccc2c(c1)nc(Nc1cccc(C(F)(F)F)c1)c1nc(NC3CC3)ncc12 [drawing 484]", "experimental-readout": "IC50", "recorded-result": 10}
{"compound": "Cc1cccc(Nc2nc3cc(C(=O)O)ccc3c3cnccc23)c1 [drawing 499]", "experimental-readout": "IC50", "recorded-result": 2.23}
{"compound": "CCN(CC)CCNc1ncc2c(n1)c(Nc1ccccc1)nc1cc(C(=O)O)ccc12 [drawing 467]", "experimental-readout": "IC50", "recorded-result": 10.7}

[I] O=C(O)c1ccc2c(c1)nc(Nc1ccccc1)c1ccncc12 [drawing 443]
[II] CNc1ncc2c(n1)c(Nc1ccc(F)c(Cl)c1)nc1cc(C(=O)O)ccc12 [drawing 486]
Of I and II , whose reported IC50 is the larger number? Record your answer as the label of the chosen record.
I

====

- System: MiaPaCa
- test-description: Cell proliferation assay (Alamar Blue)
- Format: cell-based
- condition-summary: Homo sapiens, MIA PaCa-2, 96 h, MiaPaCa cells, four days
experimental-readout: IC50 (µM)

{"molecule": "O=C(O)c1ccc2c(c1)nc(Nc1ccc(F)c(Cl)c1)c1nc(NCc3cccnc3)ncc12 [drawing 367]", "IC50 [µM]": 1.97}
{"molecule": "C#Cc1cccc(Nc2nc3cc(C(=O)O)ccc3c3cnc(NCCOCC)nc23)c1 [drawing 347]", "IC50 [µM]": 0.62}
{"molecule": "O=C(O)c1ccc2c(c1)nc(Nc1cccc(C(F)(F)F)c1)c1ccncc12 [drawing 357]", "IC50 [µM]": 8.55}
{"molecule": "O=C(O)c1ccc2c(c1)nc(Nc1ccc(F)c(Cl)c1)c1ncncc12 [drawing 296]", "IC50 [µM]": 1.22}

[I] CCN(CC)CCNc1ncc2c(n1)c(Nc1ccccc1)nc1cc(C(=O)O)ccc12 [drawing 324]
[II] C#Cc1cccc(Nc2nc3cc(C(=O)O)ccc3c3cnc(NCCCOCC)nc23)c1 [drawing 348]
Hi there, can you help? I need to know whether I or II has lower measured IC50. Record your answer as the label of the chosen record.
II
